Reference source: ChEMBL document CHEMBL4339212

target.or.test.system: Receptor tyrosine-protein kinase erbB-4 (Homo sapiens, UniProt Q15303)
Sequence (Q15303 whole entry): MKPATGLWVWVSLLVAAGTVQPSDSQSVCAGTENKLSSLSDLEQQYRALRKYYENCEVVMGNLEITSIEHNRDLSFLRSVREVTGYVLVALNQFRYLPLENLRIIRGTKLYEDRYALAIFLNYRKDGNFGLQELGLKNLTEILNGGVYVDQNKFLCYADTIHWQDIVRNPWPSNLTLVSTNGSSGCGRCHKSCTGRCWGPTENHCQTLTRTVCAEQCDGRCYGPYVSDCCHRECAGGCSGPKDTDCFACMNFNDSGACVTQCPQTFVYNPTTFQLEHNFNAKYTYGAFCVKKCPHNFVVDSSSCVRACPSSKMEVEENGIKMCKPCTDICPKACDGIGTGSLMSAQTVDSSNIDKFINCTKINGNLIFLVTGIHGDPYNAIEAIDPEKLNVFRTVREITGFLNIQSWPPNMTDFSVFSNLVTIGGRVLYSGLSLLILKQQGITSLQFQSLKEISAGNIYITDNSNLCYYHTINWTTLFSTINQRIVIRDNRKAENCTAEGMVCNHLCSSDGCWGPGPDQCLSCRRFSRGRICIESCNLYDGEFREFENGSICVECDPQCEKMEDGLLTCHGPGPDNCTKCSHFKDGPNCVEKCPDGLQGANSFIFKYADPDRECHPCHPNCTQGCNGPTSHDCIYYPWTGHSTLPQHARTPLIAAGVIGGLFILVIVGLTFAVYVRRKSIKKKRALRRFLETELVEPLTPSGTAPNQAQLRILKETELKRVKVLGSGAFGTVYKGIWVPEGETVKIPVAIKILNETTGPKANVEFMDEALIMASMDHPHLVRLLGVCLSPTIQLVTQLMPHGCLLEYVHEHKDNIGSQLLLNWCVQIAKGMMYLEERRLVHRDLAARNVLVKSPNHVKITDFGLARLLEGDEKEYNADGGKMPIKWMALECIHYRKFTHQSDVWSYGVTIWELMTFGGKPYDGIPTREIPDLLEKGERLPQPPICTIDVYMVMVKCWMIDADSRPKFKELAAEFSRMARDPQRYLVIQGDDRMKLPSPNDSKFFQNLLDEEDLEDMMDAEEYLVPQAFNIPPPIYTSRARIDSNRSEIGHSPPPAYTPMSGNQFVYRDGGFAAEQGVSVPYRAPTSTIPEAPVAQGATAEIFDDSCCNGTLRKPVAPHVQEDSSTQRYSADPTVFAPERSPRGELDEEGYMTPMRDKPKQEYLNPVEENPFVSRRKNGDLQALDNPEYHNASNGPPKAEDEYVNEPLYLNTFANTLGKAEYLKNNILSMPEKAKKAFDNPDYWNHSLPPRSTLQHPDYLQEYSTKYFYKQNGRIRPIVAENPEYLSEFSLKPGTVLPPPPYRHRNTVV
pIC50: −log10 of the molar value.
readout.type: pIC50

Req: Please report pIC50 with Receptor tyrosine-protein kinase erbB-4 (Homo sapiens, UniProt Q15303) for item `COC[C@@H](C)Nc1cc(NC(=O)N2CCCc3cc(CN4CCCCOC4=O)c(C=O)nc32)ncc1C#N` .
Resp: < 5.00

----------
target.or.test.system: UniProtKB P04626
Sequence (P04626 whole entry): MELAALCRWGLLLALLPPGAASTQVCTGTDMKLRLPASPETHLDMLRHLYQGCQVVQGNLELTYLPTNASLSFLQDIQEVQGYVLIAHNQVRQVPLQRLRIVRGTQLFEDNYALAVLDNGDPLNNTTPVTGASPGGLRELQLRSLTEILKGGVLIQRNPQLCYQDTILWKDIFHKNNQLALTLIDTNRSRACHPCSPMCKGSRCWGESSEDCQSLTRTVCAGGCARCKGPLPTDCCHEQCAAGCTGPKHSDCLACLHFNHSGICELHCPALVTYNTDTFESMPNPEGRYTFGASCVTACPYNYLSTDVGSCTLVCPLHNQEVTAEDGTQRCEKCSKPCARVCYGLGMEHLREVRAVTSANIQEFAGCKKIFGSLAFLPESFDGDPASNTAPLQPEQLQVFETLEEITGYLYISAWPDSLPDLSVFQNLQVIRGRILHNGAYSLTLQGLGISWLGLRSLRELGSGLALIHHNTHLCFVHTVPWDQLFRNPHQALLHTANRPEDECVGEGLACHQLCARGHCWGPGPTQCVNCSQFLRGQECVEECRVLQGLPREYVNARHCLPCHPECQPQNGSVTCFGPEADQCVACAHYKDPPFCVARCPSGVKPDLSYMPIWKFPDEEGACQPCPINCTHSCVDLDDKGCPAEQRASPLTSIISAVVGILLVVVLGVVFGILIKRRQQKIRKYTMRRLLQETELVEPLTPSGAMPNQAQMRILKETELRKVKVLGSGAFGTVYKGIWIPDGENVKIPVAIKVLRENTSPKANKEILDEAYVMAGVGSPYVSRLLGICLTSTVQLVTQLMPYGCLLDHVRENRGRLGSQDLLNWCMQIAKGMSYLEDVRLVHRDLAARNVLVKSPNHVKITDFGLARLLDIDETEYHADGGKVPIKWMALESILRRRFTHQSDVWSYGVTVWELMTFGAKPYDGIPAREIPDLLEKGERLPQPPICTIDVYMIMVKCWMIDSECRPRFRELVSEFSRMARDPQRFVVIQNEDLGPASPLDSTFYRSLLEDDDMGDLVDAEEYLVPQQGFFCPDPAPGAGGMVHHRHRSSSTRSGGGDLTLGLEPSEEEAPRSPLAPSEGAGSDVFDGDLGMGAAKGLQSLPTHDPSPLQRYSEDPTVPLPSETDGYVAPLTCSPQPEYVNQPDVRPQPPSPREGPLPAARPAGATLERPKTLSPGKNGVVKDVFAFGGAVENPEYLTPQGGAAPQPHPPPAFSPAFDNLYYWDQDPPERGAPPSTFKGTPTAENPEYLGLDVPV
readout.type: IC50

Req: Write IC50 of `COC[C@@H](C)Nc1cc(NC(=O)N2CCCc3cc(CN4CCCCOC4=O)c(C=O)nc32)ncc1C#N` ; system used: UniProtKB P04626
Resp: > 10 µM

----------
target.or.test.system: Receptor-type tyrosine-protein kinase FLT3 (Homo sapiens)
readout.type: IC50

Req: System Receptor-type tyrosine-protein kinase FLT3 (Homo sapiens). Read-out IC50. Item `COC[C@@H](C)Nc1cc(NC(=O)N2CCCc3cc(CN4CCCCOC4=O)c(C=O)nc32)ncc1C#N` . Report value.
Resp: > 10 µM

----------
procedure.details: Cmax in Sprague-Dawley rat at 5 mg/kg, ig measured after 5 mins to 24 hrs by LC-MS analysis
Format: ADME, organism-based
Set-up: dose 5 mg/kg, route […]
condition.context: in vivo, po
readout.type: Cmax (ng/mL)
The reply should contain only the number, in ng/mL.

Req: In one line, give reported Cmax of the entry `CO[C@H]1CCN(c2cc(NC(=O)N3CCCc4cc(CN5CCOCC5=O)c(C=O)nc43)ncc2C#N)C1` .
Resp: 3360

----------
procedure.details: Toxicity in male BALB/c mouse at 50 to 450 mg/kg/day, ig dosed once daily for 4 weeks followed by rehabilitation for another 28 days
Type: organism-based
condition.context: in vivo, po
readout.type: NOAEL at 672 h (mg/kg)
Kindly answer with a numeric value in mg/kg, unit omitted.

Req: Note NOAEL at 672 h for the compound shown: `COC[C@@H](C)Nc1cc(NC(=O)N2CCCc3cc(CN4CCCCOC4=O)c(C=O)nc32)ncc1C#N`
Resp: 450

----------
procedure.details: Mean residence time in Sprague-Dawley rat at 5 mg/kg, ig measured after 5 mins to 24 hrs by LC-MS analysis
Assay type: ADME, organism-based
condition.context: in vivo, po
readout.type: MRT

Req: Return MRT for the following molecule: `CO[C@H]1CCN(c2cc(NC(=O)N3CCCc4cc(CN5CCOCC5=O)c(C=O)nc43)ncc2C#N)C1`
Resp: 2.6 h

----------
target.or.test.system: Fibroblast growth factor receptor 1 (Homo sapiens)
Sequence (P11362 whole entry): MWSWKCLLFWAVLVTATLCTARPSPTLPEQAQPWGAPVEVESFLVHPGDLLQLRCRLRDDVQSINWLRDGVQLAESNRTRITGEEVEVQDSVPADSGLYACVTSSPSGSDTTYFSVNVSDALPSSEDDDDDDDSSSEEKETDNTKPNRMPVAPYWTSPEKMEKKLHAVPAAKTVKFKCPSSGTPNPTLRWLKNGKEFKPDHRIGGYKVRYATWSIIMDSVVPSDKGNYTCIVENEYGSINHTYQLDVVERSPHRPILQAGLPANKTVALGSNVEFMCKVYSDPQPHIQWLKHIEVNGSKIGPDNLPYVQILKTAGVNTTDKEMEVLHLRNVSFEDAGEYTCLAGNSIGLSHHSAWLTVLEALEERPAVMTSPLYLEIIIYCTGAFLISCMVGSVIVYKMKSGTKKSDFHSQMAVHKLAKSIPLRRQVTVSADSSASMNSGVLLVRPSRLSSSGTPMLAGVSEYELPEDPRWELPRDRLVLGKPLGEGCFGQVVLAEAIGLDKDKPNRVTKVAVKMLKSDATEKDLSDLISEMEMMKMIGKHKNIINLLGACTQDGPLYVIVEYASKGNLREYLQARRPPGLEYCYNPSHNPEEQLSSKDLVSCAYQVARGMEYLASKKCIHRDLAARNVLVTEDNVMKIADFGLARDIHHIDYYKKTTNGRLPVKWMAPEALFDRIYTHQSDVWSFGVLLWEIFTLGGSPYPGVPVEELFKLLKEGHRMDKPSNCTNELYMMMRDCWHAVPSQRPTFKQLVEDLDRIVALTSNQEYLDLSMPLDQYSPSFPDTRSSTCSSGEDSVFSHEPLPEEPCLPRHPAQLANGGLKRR
procedure.details: Inhibition of FGFR1 (unknown origin)
readout.type: IC50

Req: Specify IC50 for `COC[C@@H](C)Nc1cc(NC(=O)N2CCCc3cc(CN4CCCCOC4=O)c(C=O)nc32)ncc1C#N` and stop.
Resp: > 10 µM

----------
target.or.test.system: Muscle, skeletal receptor tyrosine-protein kinase (Homo sapiens, UniProt O15146)
Sequence (O15146 whole entry): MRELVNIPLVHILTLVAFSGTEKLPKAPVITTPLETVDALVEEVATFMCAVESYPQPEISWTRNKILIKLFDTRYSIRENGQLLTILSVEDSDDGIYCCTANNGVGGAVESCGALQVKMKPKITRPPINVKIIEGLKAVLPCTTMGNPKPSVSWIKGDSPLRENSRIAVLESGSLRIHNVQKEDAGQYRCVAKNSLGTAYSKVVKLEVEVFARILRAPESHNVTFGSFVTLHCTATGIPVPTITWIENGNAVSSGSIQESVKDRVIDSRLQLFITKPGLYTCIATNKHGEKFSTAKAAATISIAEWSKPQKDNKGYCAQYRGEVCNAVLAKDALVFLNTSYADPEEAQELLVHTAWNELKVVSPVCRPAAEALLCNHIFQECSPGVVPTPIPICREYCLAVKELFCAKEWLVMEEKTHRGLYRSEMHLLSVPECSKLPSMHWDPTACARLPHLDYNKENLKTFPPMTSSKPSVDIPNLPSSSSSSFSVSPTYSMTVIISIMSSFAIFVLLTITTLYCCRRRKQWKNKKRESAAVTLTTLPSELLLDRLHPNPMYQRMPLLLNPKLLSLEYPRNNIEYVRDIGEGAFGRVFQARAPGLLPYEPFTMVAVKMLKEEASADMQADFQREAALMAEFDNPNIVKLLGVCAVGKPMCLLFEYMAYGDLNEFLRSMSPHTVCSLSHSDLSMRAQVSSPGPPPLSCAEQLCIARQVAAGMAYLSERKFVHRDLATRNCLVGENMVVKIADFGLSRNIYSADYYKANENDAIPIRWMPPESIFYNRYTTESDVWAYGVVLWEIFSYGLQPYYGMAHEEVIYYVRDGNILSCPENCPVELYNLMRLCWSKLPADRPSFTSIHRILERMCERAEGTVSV
readout.type: IC50

Req: Supply measured IC50 of `COC[C@@H](C)Nc1cc(NC(=O)N2CCCc3cc(CN4CCCCOC4=O)c(C=O)nc32)ncc1C#N` in your reply.
Resp: > 10 µM

----------
target.or.test.system: UniProt Q02763
pIC50: −log10 of the molar value.
readout.type: pIC50

Req: State pIC50 on UniProt Q02763. Entry: `COC[C@@H](C)Nc1cc(NC(=O)N2CCCc3cc(CN4CCCCOC4=O)c(C=O)nc32)ncc1C#N`
Resp: < 5.00

----------
target.or.test.system: Vascular endothelial growth factor receptor 2 (Homo sapiens, UniProt P35968)
Sequence (P35968 whole entry): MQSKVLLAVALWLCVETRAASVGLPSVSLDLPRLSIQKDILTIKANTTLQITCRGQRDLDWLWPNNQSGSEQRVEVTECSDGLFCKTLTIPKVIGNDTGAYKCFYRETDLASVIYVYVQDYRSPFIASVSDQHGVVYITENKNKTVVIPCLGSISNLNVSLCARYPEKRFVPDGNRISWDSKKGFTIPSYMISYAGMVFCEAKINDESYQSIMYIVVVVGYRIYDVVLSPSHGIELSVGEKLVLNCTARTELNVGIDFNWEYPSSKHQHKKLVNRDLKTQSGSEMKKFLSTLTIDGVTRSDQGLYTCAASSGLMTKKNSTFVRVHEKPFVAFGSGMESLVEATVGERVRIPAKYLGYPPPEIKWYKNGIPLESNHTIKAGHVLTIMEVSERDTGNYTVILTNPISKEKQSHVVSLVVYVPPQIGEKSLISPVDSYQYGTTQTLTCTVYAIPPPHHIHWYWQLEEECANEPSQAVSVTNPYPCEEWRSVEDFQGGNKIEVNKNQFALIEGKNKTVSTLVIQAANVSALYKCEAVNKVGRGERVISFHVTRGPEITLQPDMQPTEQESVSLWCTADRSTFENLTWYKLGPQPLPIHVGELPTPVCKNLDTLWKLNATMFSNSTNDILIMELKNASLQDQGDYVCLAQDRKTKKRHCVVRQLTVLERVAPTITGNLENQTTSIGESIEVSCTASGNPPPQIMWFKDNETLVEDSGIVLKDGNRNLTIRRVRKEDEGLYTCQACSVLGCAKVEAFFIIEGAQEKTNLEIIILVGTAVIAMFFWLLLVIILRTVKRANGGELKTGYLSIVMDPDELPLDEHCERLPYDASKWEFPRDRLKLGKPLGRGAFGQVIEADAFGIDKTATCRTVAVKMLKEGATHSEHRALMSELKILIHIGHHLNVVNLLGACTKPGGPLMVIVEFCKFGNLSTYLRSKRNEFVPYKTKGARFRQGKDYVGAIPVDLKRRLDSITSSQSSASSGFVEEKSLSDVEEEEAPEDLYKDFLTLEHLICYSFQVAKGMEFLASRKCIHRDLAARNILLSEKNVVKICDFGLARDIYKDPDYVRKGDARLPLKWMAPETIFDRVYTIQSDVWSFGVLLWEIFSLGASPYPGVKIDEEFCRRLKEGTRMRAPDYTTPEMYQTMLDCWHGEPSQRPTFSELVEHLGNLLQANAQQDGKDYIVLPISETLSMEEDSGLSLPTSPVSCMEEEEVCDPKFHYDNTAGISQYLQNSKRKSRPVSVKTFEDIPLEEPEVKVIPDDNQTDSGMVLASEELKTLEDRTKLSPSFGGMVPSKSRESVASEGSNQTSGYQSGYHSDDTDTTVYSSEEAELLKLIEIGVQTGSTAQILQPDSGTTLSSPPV
pIC50: −log10 of the molar value.
readout.type: pIC50

Req: Print Vascular endothelial growth factor receptor 2 (Homo sapiens, UniProt P35968) pIC50 for `COC[C@@H](C)Nc1cc(NC(=O)N2CCCc3cc(CN4CCCCOC4=O)c(C=O)nc32)ncc1C#N` .
Resp: < 5.00

----------
System: Hep 3B2
procedure.details: cells
condition.context: Homo sapiens, Hep3B, 72 h
The label YES is reserved for IC50 strictly under 0.01 µM; NO covers values equal to or above it.

compound	group.label
N#Cc1cnc(NC(=O)N2CCCc3cc(CN4CCOCC4=O)c(C=O)nc32)cc1S[C@H]1CCOC1	NO
N#Cc1cnc(NC(=O)N2CCCc3cc(CN4CCCCOC4=O)c(C=O)nc32)cc1N[C@@H]1CCOC1	YES

Req: Hello, is IC50 of the following compound strictly smaller than 0.01 µM? `N#Cc1cnc(NC(=O)N2CCCc3cc(CN4CCCCOC4=O)c(C=O)nc32)cc1N[C@H]1CCOC1`
Resp: YES

Req: In the record for `CO[C@@H]1CCN(Cc2cc3c(nc2C=O)N(C(=O)Nc2cc(N[C@@H]4CCOC4)c(C#N)cn2)CCC3)C1=O` , is IC50 less than 0.01 µM?
Resp: YES

Req: Quick check: does `CO[C@H]1CCN(c2cc(NC(=O)N3CCCc4cc(CN5C(=O)OC[C@@H]5C)c(C=O)nc43)ncc2C#N)C1` have IC50 under 0.01 µM?
Resp: NO

Req: Hello, I'm reviewing records and need to know if IC50 of CN(C)C1CCN(c2cc(NC(=O)N3CCCc4cc(CN5CCOCC5=O)c(C=O)nc43)ncc2C#N)C1 (stereo not drawn) is below 0.01 µM. Could you check?
Resp: NO

Req: Say whether its IC50 is strictly beneath 0.01 µM. Entry: `COCCNc1cc(NC(=O)N2CCCc3cc(CN4CC[C@@H](OC)C4=O)c(C=O)nc32)ncc1C#N`
Resp: YES

Req: # strict comparison: is reported IC50 < 0.01 µM? input = `COCCNc1cc(NC(=O)N2CCCc3cc(CN4CCN(C)CC4=O)c(C=O)nc32)ncc1C#N`
Resp: YES

Req: Determine if `CO[C@@H]1CCN(c2cc(NC(=O)N3CCCc4cc(CN5C(=O)OC[C@@H]5C)c(C=O)nc43)ncc2C#N)C1` shows IC50 strictly lower than 0.01 µM.
Resp: NO

Req: Does `CO[C@H]1CCOC[C@@H]1Oc1cc(NC(=O)N2CCCc3cc(CN4CCOCC4=O)c(C=O)nc32)ncc1C#N` have IC50 strictly under 0.01 µM?
Resp: NO

Req: Given the entry `CO[C@H]1CCN(c2cc(NC(=O)N3CCCc4cc(CN5CCOC5=O)c(C=O)nc43)ncc2C#N)C1` , would its reported IC50 be below 0.01 µM?
Resp: NO

Req: Say whether its IC50 is strictly beneath 0.01 µM. Entry: `COC[C@@H](C)Nc1cc(NC(=O)N2CCCc3cc(CN4CCCCOC4=O)c(C=O)nc32)ncc1C#N`
Resp: YES

Req: # strict comparison: is reported IC50 < 0.01 µM? input = `COc1ccccc1Oc1cc(NC(=O)N2CCCc3cc(CN4CCOCC4=O)c(C=O)nc32)ncc1C#N`
Resp: NO

Req: Please check: IC50 for `N#Cc1cnc(NC(=O)N2CCCc3cc(CN4CCOCC4=O)c(C=O)nc32)cc1S[C@@H]1CCOC1` , strictly under 0.01 µM or not?
Resp: NO

Req: Take the compound `COCCOc1cc(NC(=O)N2CCCc3cc(CN4CCOCC4=O)c(C=O)nc32)ncc1C#N` and say whether its IC50 is less than 0.01 µM.
Resp: NO

Req: For `COCCNc1cc(NC(=O)N2CCCc3cc(CN4CC[C@H](OC)C4=O)c(C=O)nc32)ncc1C#N` , is the recorded IC50 below the cut-off of 0.01 µM?
Resp: YES

Req: Say whether its IC50 is strictly beneath 0.01 µM. Entry: `COC[C@@H]1CCCN1c1cc(NC(=O)N2CCCc3cc(CN4CCOCC4=O)c(C=O)nc32)ncc1C#N`
Resp: NO

Req: Quick check: IC50 of `COC[C@@H](C)Oc1cc(NC(=O)N2CCCc3cc(CN4CCCCOC4=O)c(C=O)nc32)ncc1C#N` under 0.01 µM?
Resp: YES
